test system: NOMO1; assay: cell viability relative to DMSO control; higher = less cytotoxic; details: RPMI 5 mM glucose + 10% dialyzed FBS; 48 h; 1.71 µM
Listed here: items and their measured cell viability.
Quick reminder: number only, in %, skip the unit.

Consider the reported cell viability for these compounds:
{"COMPOUND": "CCC[S+](=O)([O-])Nc1ccc(F)c(C(=O)c2c[nH]c3ncc(-c4ccc(Cl)cc4)cc23)c1F", "QUANTITATIVE RESULT": 107}
{"COMPOUND": "COc1cc2nc(N3CCN(C(=O)c4ccco4)CC3)nc(N)c2cc1OC", "QUANTITATIVE RESULT": 98.2}

The compound listed as CCCC[N+]1(C)[C@@H]2CC(OC(=O)[C@H](CO)c3ccccc3)C[C@H]1[C@@H]1O[C@@H]12 (some centres not stated) has a reported cell viability of 122

The compound listed as O=C(Nc1ccncc1)C(=O)c1cn(Cc2ccc(Cl)cc2)c2ccccc12 has a reported cell viability of 34.7

The compound listed as CN1C(=O)\C(=C/C2=C1N=C(NC3CCOCC3)N=C2)OC4=C(F)C=C(F)C=C4 has a reported cell viability of 91.4

The compound listed as NC(=O)[C@@H](CCC(F)(F)F)N(Cc1ccc(-c2ncon2)cc1F)[S+](=O)([O-])c1ccc(Cl)cc1 has a reported cell viability of 83.2

The compound listed as CO[C@H]1C[C@H]2OC[C@@]2(OC(C)=O)[C@H]3[C@H](OC(=O)C4=CC=CC=C4)[C@]5(O)C[C@H](OC(=O)[C@H](O)[C@@H](NC(=O)OC(C)(C)C)C6=CC=CC=C6)/C(=C(/[C@@H](OC)C(=O)[C@]13C)C5(C)C)C has a reported cell viability of 13.7

----------
test system: SEM cells; assay: cell viability relative to DMSO control; higher = less cytotoxic; details: RPMI 5 mM glucose + 10% dialyzed FBS; 48 h; 15.4 µM
MEASURED ATTRIBUTE: cell viability (%)
Quick reminder: number only, in %, skip the unit.

{"COMPOUND": "CN1\\C(=C(O)/C2=C(C=C(Cl)S2)[S+]1([O-])=O)C(=O)NC3=NC=CC=C3", "cell viability / %": 111}
{"COMPOUND": "NC(=O)[C@@H](CCC(F)(F)F)N(Cc1ccc(-c2ncon2)cc1F)[S+](=O)([O-])c1ccc(Cl)cc1", "cell viability / %": 52.3}
{"COMPOUND": "Cc1cccc(Nc2nc(N[C@@H]3CCCC[C@@H]3N)ncc2C(N)=O)c1", "cell viability / %": 23.3}
{"COMPOUND": "O=C(c1ccc(C(=O)N2CCC(N3CCCC3)CC2)c(Nc2ccccc2)c1)N1CCC(N2CCCC2)CC1", "cell viability / %": 88.5}
{"COMPOUND": "N#C[C@@H]1C[C@@H]2C[C@@H]2N1C(=O)[C@@H](N)C12CC3CC(CC(O)(C3)C1)C2", "cell viability / %": 117}

The compound listed as Cc1ccccc1C(C(=O)NC1CCCC1)N(C(=O)Cn1cnc2ccccc21)c1cccc(F)c1 (stereo not drawn) has a reported cell viability of 118

The compound listed as Cc1n[nH]c(C)c1Cc1sc2c(c1C(=O)N1C[C@H](O)CO1)c(=O)n(C)c(=O)n2CC(C)C has a reported cell viability of 85

----------
system: SEM cells; assay: cell viability relative to DMSO control; higher = less cytotoxic; settings: RPMI 5 mM glucose + 10% FBS; 48 h; 0.19 µM
MEASURED ATTRIBUTE: cell viability (%)
Quick reminder: number only, in %, skip the unit.

Consider the reported cell viability for these compounds:
{"MOLECULE SMILES": "Cc1cccc(Nc2nc(N[C@@H]3CCCC[C@@H]3N)ncc2C(N)=O)c1", "ENDPOINT UNIT": "%", "QUANTITATIVE RESULT": 89.4}
{"MOLECULE SMILES": "O=C(/C=C/c1cccnc1)NCCCCC1CCN(C(=O)c2ccccc2)CC1", "ENDPOINT UNIT": "%", "QUANTITATIVE RESULT": 5.86}
{"MOLECULE SMILES": "NC(=O)Cc1cccc(C(=O)c2ccccc2)c1N", "ENDPOINT UNIT": "%", "QUANTITATIVE RESULT": 95.2}

Kindly consider the entry below.
Summary line: CC(=O)O[C@@]12CO[C@@H]1C[C@H](O)[C@]3(C)[C@@H]2[C@H](OC(=O)C4=CC=CC=C4)[C@]5(O)C[C@H](O)/C(=C(/[C@@H](O)C3=O)C5(C)C)C , SEM cells, reported cell viability = 72.3

----------
tested on: SEM cells; assay: cell viability relative to DMSO control; higher = less cytotoxic; details: HPLM + 10% dialyzed FBS; 48 h; 0.0632 µM
MEASURED ATTRIBUTE: cell viability (%)
Quick reminder: number only, in %, skip the unit.

Consider the reported cell viability for these compounds:
{"COMPOUND": "CCN(CCO)CCCC(C)Nc1ccnc2cc(Cl)ccc12 (stereo not given)", "MEASURED ON": "SEM cells", "ENDPOINT UNIT": "%", "cell viability": 105}
{"COMPOUND": "NC(=O)c1c(OCc2c(F)cc(Br)cc2F)nsc1NC(=O)NCCCCN1CCCC1", "MEASURED ON": "SEM cells", "ENDPOINT UNIT": "%", "cell viability": 108}
{"COMPOUND": "O=C(O)CCCc1ccc(N(CCCl)CCCl)cc1", "MEASURED ON": "SEM cells", "ENDPOINT UNIT": "%", "cell viability": 120}
{"COMPOUND": "OCCN1CCN(CCCN2c3ccccc3Sc3ccc(C(F)(F)F)cc32)CC1", "MEASURED ON": "SEM cells", "ENDPOINT UNIT": "%", "cell viability": 104}
{"COMPOUND": "CNC(=O)c1cc(Oc2ccc(NC(=O)Nc3ccc(Cl)c(C(F)(F)F)c3)c(F)c2)ccn1", "MEASURED ON": "SEM cells", "ENDPOINT UNIT": "%", "cell viability": 84.3}
{"COMPOUND": "Cc1n[nH]c2ccc(-c3cncc(OC[C@@H](N)Cc4c[nH]c5ccccc45)c3)cc12", "MEASURED ON": "SEM cells", "ENDPOINT UNIT": "%", "cell viability": 83.7}

Summary line: COC(=O)[C@@H]1CC2=CC(=O)CC[C@]2(C)[C@@]23O[C@@H]2C[C@@]2(C)[C@@H](CC[C@@]24CCC(=O)O4)[C@H]13 , SEM cells, reported cell viability = 96.1

Summary line: CC(=O)OCC(CCn1cnc2cnc(N)nc21)COC(C)=O , SEM cells, reported cell viability = 97.3

Summary line: Cc1ccc([S+](=O)([O-])NC(=O)NN2CC3CCCC3C2)cc1 (stereo not given) , SEM cells, reported cell viability = 101

Summary line: NC/1=N/C(=O)C2=C([NH]C=C2CCC3=CC=C(C=C3)C(=O)N[C@@H](CCC(O)=O)C(O)=O)N1 , SEM cells, reported cell viability = 114

Summary line: CNCCN(C)Cc1c[nH]nc1-c1ccc(O[C@H]2C[C@H](OCCC3CCOCC3)C2)cc1 , SEM cells, reported cell viability = 112

Summary line: CC/C(=C(\c1ccccc1)c1ccc(OCCN(C)C)cc1)c1ccccc1 , SEM cells, reported cell viability = 74.6

Summary line: c1cc(N[C@@H]2CCNC2)nc(-c2cnc3ccc(-c4cn[nH]c4)cn23)c1 , SEM cells, reported cell viability = 106

Summary line: CCCCCCCN(CC)CCCC(O)c1ccc(NS(C)(=O)=O)cc1.CCCCCCCN(CC)CCCC(O)c1ccc(NS(C)(=O)=O)cc1.O=C(O)/C=C/C(=O)O (stereo not given) , SEM cells, reported cell viability = 74.8

----------
test system: P12-Ichikawa; experiment: cell viability relative to DMSO control; higher = less cytotoxic; conditions: RPMI 5 mM glucose + 10% FBS; 48 h; 5.12 µM
MEASURED ATTRIBUTE: cell viability (%)
Quick reminder: number only, in %, skip the unit.

{"MOLECULE": "O=C(N[C@H]1CN2CCC1CC2)c1ccc(Cl)cc1", "ENDPOINT UNIT": "%", "cell viability": 106}
{"MOLECULE": "Clc1ccc(C(Cn2ccnc2)OCc2ccc(Sc3ccccc3)cc2)c(Cl)c1 (stereo not given)", "ENDPOINT UNIT": "%", "cell viability": 109}
{"MOLECULE": "COc1cc([S+](C)(=O)[O-])ccc1Nc1nc2ccc(-c3ccc(NC(=O)[C@H](C)c4ccc(F)cc4)cc3)cn2n1", "ENDPOINT UNIT": "%", "cell viability": 55.1}

The molecule listed as COc1ccc(-c2cc3c(C)nc(N)nc3n([C@H]3CC[C@H](OCCO)CC3)c2=O)cn1 has a reported cell viability of 42.7

The molecule listed as CN1\C(=C(O)/C2=C(C=C(Cl)S2)[S+]1([O-])=O)C(=O)NC3=NC=CC=C3 has a reported cell viability of 123

Source of measurements: the supplement of paper PMC11451515
